# TARGET_OR_SYSTEM: T1, full length human DLL4 (human, UniProt Q9NR61 27-685)
# T1 construct: whole, on cells; also called native DLL4 expressed in HEK293 cells
# T1 sequence (Q9NR61 27-685): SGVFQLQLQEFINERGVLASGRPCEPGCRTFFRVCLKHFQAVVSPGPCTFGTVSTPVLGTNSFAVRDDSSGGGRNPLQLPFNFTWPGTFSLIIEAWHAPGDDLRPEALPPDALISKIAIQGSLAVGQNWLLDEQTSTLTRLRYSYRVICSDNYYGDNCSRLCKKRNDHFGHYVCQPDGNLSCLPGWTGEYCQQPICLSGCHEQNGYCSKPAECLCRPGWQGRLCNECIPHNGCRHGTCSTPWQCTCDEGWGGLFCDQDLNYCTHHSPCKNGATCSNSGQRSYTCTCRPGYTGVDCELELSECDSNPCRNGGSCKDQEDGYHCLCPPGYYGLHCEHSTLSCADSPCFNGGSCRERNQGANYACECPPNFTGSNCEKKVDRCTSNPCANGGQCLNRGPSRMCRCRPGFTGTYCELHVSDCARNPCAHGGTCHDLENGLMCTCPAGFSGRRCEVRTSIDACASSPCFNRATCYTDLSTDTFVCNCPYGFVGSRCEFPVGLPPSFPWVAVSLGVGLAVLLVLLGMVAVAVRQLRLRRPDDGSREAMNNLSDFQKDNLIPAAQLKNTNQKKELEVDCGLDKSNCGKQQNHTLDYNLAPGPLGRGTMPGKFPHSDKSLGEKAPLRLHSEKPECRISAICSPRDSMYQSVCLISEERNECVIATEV
# METHOD_NOTES: FMAT competition, purified antibody vs Alexa-647 human Notch1/Fc, 293T cells with human DLL4
ATTRIBUTE_MEASURED: % inhibition at 0.62 nM (%)
Use % as the unit, but write only the number.

Task: Look up % inhibition at 0.62 nM for this binder: 20G8 (antibody, IgG4, V domains shown, Fully human; also used where no isotype is printed) VH: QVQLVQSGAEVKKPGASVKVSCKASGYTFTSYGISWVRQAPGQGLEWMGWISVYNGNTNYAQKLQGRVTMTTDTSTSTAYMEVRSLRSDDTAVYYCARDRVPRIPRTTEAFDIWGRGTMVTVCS VL: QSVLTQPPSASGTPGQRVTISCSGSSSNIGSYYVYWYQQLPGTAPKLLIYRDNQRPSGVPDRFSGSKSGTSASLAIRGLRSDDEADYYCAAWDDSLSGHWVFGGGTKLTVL
Output: -14
